Reference source: paper PMC8919062

- Tested on: Class I/IIb HDACs
- assay overview: class-distinguishing fluorogenic substrates whole-cell assay, class I/IIb, L3.6
- Type: cell-based
- run parameters: read-out: IC50 Class I/IIb HDACs, L3.6 cells
pIC50: −log10 of the molar value.
experimental readout: pIC50

What the record says about CC(C)(CNC(=O)c1cccc(-c2noc(C(F)(F)F)n2)c1)c1coc(-c2ccccc2)n1 [TMP195] : pIC50 is < 5.30
